target: ΔF508-CFTR (Homo sapiens, UniProt P13569, DEL508-508); construct: expressed in transfected cells; assay: Membrane potential optical (FRET/VIPR) assay, identification of potentiator compounds; type: cell-based; conditions: Table 3; relative efficacy; assay not given
Sequence (P13569 with tags, fused parts or gaps DEL508-508): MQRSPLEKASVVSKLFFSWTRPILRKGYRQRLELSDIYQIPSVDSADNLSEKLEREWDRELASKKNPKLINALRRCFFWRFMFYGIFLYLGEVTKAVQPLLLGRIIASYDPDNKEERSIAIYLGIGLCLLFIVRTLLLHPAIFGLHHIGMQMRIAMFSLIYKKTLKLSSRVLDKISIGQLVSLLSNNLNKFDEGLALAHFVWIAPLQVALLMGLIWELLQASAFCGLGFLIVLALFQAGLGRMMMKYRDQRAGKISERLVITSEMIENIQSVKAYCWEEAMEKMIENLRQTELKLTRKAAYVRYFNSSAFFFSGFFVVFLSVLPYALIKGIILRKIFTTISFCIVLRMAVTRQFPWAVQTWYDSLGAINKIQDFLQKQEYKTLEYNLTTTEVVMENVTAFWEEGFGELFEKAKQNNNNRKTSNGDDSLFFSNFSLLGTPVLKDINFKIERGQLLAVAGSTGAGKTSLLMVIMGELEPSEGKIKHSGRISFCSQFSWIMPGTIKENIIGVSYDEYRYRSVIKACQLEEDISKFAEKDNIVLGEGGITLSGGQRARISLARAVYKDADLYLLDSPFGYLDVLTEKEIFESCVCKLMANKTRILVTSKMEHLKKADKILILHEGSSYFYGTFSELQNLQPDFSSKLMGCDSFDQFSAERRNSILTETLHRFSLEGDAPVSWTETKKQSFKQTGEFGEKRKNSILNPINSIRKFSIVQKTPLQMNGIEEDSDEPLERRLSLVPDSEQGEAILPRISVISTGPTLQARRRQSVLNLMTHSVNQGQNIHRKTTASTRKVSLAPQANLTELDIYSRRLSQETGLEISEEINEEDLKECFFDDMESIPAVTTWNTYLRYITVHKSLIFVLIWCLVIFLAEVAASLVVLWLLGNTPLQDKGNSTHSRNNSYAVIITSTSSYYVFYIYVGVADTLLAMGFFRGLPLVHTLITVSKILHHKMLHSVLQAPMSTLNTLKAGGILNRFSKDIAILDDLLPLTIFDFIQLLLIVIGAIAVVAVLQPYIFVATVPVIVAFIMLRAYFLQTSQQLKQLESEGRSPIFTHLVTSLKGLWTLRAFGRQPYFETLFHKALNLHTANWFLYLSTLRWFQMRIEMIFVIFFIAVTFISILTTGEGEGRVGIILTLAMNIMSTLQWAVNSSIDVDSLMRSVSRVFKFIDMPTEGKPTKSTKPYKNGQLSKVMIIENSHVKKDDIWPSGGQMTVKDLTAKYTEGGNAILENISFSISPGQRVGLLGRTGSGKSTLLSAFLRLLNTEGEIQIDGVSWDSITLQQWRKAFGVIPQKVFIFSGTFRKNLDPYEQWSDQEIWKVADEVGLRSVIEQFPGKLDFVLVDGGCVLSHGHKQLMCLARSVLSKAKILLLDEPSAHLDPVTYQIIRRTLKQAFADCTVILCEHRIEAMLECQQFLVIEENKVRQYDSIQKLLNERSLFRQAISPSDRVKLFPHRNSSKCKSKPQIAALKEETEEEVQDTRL
Text: […]
Metric name: % Activity

# Compound, Metric name, Result
rows = [
    ("CC(C)c1ccc(-c2ccccc2NC(=O)c2c[nH]c3ccccc3c2=O)cc1 [Compound 432]", "% Activity", "++ (between 25% to 100%)"),
    ("Cc1cccc2[nH]cc(C(=O)Nc3ccc(N4[C@@H](C)CC[C@@H]4C)cc3C(F)(F)F)c(=O)c12 [Compound 516]", "% Activity", "++ (between 25% to 100%)"),
    ("O=C(Nc1ccc2[nH]c(=O)oc2c1)c1c[nH]c2ccccc2c1=O [Compound 152]", "% Activity", "+ (<25%)"),
    ("CC(C)OC(=O)c1cccc(-c2ccccc2NC(=O)c2c[nH]c3ccccc3c2=O)c1 [Compound 71]", "% Activity", "++ (between 25% to 100%)"),
    ("CC(C)(C)OC(=O)Nc1ccc(C(C)(C)C)c(NC(=O)c2c[nH]c3ccccc3c2=O)c1 [Compound 353]", "% Activity", "++ (between 25% to 100%)"),
    ("CC1(c2cc(F)c(NC(=O)c3c[nH]c4ccc(F)cc4c3=O)cc2O)CCCCC1 [Compound 218]", "% Activity", "++ (between 25% to 100%)"),
    ("Cc1cccc2[nH]cc(C(=O)Nc3ccc(OC4CCCC4)cc3C(F)(F)F)c(=O)c12 [Compound 595]", "% Activity", "++ (between 25% to 100%)"),
    ("CC(=O)c1cccc(NC(=O)c2c[nH]c3ccccc3c2=O)c1 [Compound 328]", "% Activity", "+ (<25%)"),
    ("O=C(Nc1cc(O)c(Cl)cc1Cl)c1c[nH]c2ccccc2c1=O [Compound 608]", "% Activity", "++ (between 25% to 100%)"),
    ("CN(c1ccc(F)cc1)S(=O)(=O)c1ccc2[nH]cc(C(=O)Nc3cc(O)c(C(C)(C)C)cc3C(C)(C)C)c(=O)c2c1 [Compound 137]", "% Activity", "++ (between 25% to 100%)"),
    ("CCOc1cccc2c(=O)c(C(=O)Nc3ccc(C(C)C)cc3C(F)(F)F)c[nH]c12 [Compound 517]", "% Activity", "+ (<25%)"),
    ("CCCc1ccc(NC(=O)c2c[nH]c3ccccc3c2=O)cc1NC(=O)OCC [Compound 382]", "% Activity", "++ (between 25% to 100%)"),
    ("O=C(Nc1ccc(C(F)(F)F)cn1)c1c[nH]c2ccccc2c1=O [Compound 74]", "% Activity", "+ (<25%)"),
    ("Cc1cccc(-c2ccccc2NC(=O)c2c[nH]c3ccccc3c2=O)c1C [Compound 401]", "% Activity", "++ (between 25% to 100%)"),
    ("CCc1cccc2c(=O)c(C(=O)Nc3cc(O)c(C(C)(C)C)cc3F)c[nH]c12 [Compound 605]", "% Activity", "+ (<25%)"),
    ("CC1(C)CNc2cc(NC(=O)c3c[nH]c4ccccc4c3=O)ccc21 [Compound 386]", "% Activity", "++ (between 25% to 100%)"),
    ("CCOc1ccccc1NC(=O)c1c[nH]c2ccccc2c1=O [Compound 380]", "% Activity", "++ (between 25% to 100%)"),
    ("COC(=O)c1cc(NC(=O)c2c[nH]c3ccccc3c2=O)ccc1C(C)(C)C [Compound 444]", "% Activity", "++ (between 25% to 100%)"),
    ("CC(C)(C)c1cc(F)c(NC(=O)c2c[nH]c3cccc(F)c3c2=O)cc1O [Compound 610]", "% Activity", "++ (between 25% to 100%)"),
    ("O=C(Nc1ccc(OC(F)(F)F)cc1)c1c[nH]c2ccccc2c1=O [Compound 176]", "% Activity", "++ (between 25% to 100%)"),
    ("COc1ncccc1NC(=O)c1c[nH]c2ccccc2c1=O [Compound 15]", "% Activity", "++ (between 25% to 100%)"),
    ("CSc1nc2ccccc2c(O)c1C(=O)Nc1ccc2cc[nH]c2c1 [Compound 374]", "% Activity", "+ (<25%)"),
    ("Cc1cccc(NC(=O)c2c[nH]c3ccccc3c2=O)c1 [Compound 449]", "% Activity", "++ (between 25% to 100%)"),
    ("O=C(Nc1ccccc1-c1ccc2[nH]ccc2c1)c1c[nH]c2ccccc2c1=O [Compound 118]", "% Activity", "++ (between 25% to 100%)"),
]
